All figures here come from paper PMC10092221.

assay: Capmatinib/CMN288 pharmacokinetics, inhibition cohort; assay type: in vivo, human (healthy subjects); conditions: human, plasma, po, 200 mg
metric: AUC(0-t) (ng·h/mL)

CNC(=O)c1ccc(-c2cnc3ncc(Cc4ccc5ncccc5c4)n3n2)cc1F
5430

====

experiment: Capmatinib/CMN288 pharmacokinetics, induction cohort; format: in vivo, human (healthy subjects); conditions: human, plasma, po, t1/2, mean (CV%), induction cohort, healthy subjects, single oral capmatinib 400 mg + rifampicin 600 mg/day, plasma
metric: half-life (h)

CNC(=O)c1ccc(-c2cnc3ncc(Cc4ccc5ncccc5c4)n3n2)cc1F
11.1

====

test: Capmatinib/CMN288 pharmacokinetics, induction cohort; type: in vivo, human (healthy subjects); details: human, plasma, po, AUClast, adjusted geometric mean, induction cohort, healthy subjects, single oral capmatinib 400 mg + rifampicin 600 mg/day, plasma
metric: AUC(0-t) (ng·h/mL)

CNC(=O)c1ccc(-c2cnc3ncc(Cc4ccc5ncccc5c4)n3n2)cc1F
3720

====

experiment: Capmatinib/CMN288 pharmacokinetics, induction cohort; assay type: in vivo, human (healthy subjects); conditions: human, plasma, po, AUClast, geometric mean (geometric CV%), induction cohort, healthy subjects, single oral capmatinib 400 mg + rifampicin 600 mg/day, plasma
metric: AUC(0-t) (µg·h/mL)

CNC(=O)c1ccc(-c2cnc3ncc(Cc4ccc5ncccc5c4)n3n2)cc1F
3.72

====

assay: Capmatinib/CMN288 pharmacokinetics, induction cohort; assay type: in vivo, human (healthy subjects); conditions: human, plasma, po, AUClast, mean (CV%), induction cohort, healthy subjects, single oral capmatinib 400 mg + rifampicin 600 mg/day, plasma
metric: AUC(0-t) (ng·h/mL)

CNC(=O)c1ccc(-c2cnc3ncc(Cc4ccc5ncccc5c4)n3n2)cc1F [Capmatinib]
3860

====

assay: Capmatinib/CMN288 pharmacokinetics, induction cohort; assay type: in vivo, human (healthy subjects); conditions: human, plasma, po, AUCinf, adjusted geometric mean, induction cohort, healthy subjects, single oral capmatinib 400 mg + rifampicin 600 mg/day, plasma
metric: AUC(0-inf) (ng·h/mL)

CNC(=O)c1ccc(-c2cnc3ncc(Cc4ccc5ncccc5c4)n3n2)cc1F
3850

====

assay: Capmatinib/CMN288 pharmacokinetics, induction cohort; type: in vivo, human (healthy subjects); conditions: human, plasma, po, Cmax, adjusted geometric mean, induction cohort, healthy subjects, single oral capmatinib 400 mg + rifampicin 600 mg/day, plasma
metric: Cmax (ng/mL)

CNC(=O)c1ccc(-c2cnc3ncc(Cc4ccc5ncccc5c4)n3n2)cc1F
1350

====

assay: Capmatinib/CMN288 pharmacokinetics, inhibition cohort; type: in vivo, human (healthy subjects); details: human, plasma, po, Cmax, adjusted geometric mean, inhibition cohort, healthy subjects, single oral capmatinib 200 mg + itraconazole 200 mg/day, plasma
metric: Cmax (ng/mL)

CNC(=O)c1ccc(-c2cnc3ncc(Cc4ccc5ncccc5c4)n3n2)cc1F [Capmatinib]
1300

====

experiment: Capmatinib/CMN288 pharmacokinetics, induction cohort; format: in vivo, human (healthy subjects); settings: human, plasma, po, AUCinf, mean (CV%), induction cohort, healthy subjects, single oral capmatinib 400 mg + rifampicin 600 mg/day, plasma
metric: AUC(0-inf) (ng·h/mL)

CNC(=O)c1ccc(-c2cnc3ncc(Cc4ccc5ncccc5c4)n3n2)cc1F
4050

====

test: Capmatinib/CMN288 pharmacokinetics, induction cohort; type: in vivo, human (healthy subjects); conditions: human, plasma, po, Cmax, geometric mean (geometric CV%), induction cohort, healthy subjects, single oral capmatinib 400 mg + rifampicin 600 mg/day, plasma
metric: Cmax (ng/mL)

CNC(=O)c1ccc(-c2cnc3ncc(Cc4ccc5ncccc5c4)n3n2)cc1F [Capmatinib]
1350
